// provenance: PubChem BioAssay AID624351

- assay_protocol: coupled detection enzyme interference, dose response, artefact control for MgcRacGAP inhibitor project, biochemical, coupled enzyme counter-screen (AID 624351);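 also: signal is the ADP detection kit reading of free GDP without any GAP enzyme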
- conditions: ADP Hunter coupled enzyme counter-screen, fluorescence, no MgcRacGAP; series mostly up to 80 µM
Among all 2,400 compounds or so, about 1,400 (58%) were called active. The set was probably picked from earlier hits. Some of the results follow.
measure: IC50

1) CCN1CCN(CC(=O)Nc2nc3ccc(OC)cc3s2)CC1: inactive
2) CC(=O)Nc1ccc(Nc2ccccc2)cc1: 75.5 µM (active)
3) Oc1ccc(NCc2ccc(OCc3ccccc3)cc2)cc1: inactive
4) COc1ccc(NC(=O)c2ccc(NC(=O)CN3CCN(c4ccc(O)cc4)CC3)cc2)cc1: 76.7 µM (active)
5) CC(=O)Nc1ccc(NC(=O)C(C)OC(=O)COc2ccc(Nc3ccccc3)cc2)cc1 (stereo unspecified): inactive
6) O=C(CN1CCN(c2ccc(O)cc2)CC1)NC(=O)NCc1ccco1: 54.7 µM (active)

====

- assay_protocol: coupled detection enzyme interference, dose response, artefact control for MgcRacGAP inhibitor project, biochemical, coupled enzyme counter-screen (AID 624351);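 also: signal is the ADP detection kit reading of free GDP without any GAP enzyme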
- conditions: ADP Hunter coupled enzyme counter-screen, fluorescence, no MgcRacGAP; series mostly up to 80 µM
Hit rate of the full screen: of about 2,400 compounds, about 1,400 (58%) were called active.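 The calls were made as follows: active = inhibition of 30% or more at any tested dose; inconclusive = primary hits over the limit that were never retested; inactive = the rest.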 The set was probably picked from earlier hits. The list shows a part of the results.
Classes used: 1 for active, -1 for inactive

1. Cc1ccccc1CN(C)CCc1ccccn1: -1
2. CCCCN(C)CCNC(=O)CSCc1ccc(C)cc1: -1
3. CC1NC(C)c2c(ccc3ccccc23)O1 (configuration not stated): -1
4. CN1CCN(C=NC2=NN(c3cccc(C(F)(F)F)c3)CC2)CC1: 1
5. Cc1ccc(S(=O)(=O)N2CCN(C(=O)CN3CCN(c4ccc(O)cc4)CC3)CC2)cc1: 1
6. COc1cc(/C=C2/SC(=S)N(c3c(C)n(C)n(-c4ccccc4)c3=O)C2=O)ccc1O: 1
7. CCOc1ccccc1/C=c1\sc2ncnn2c1=O: -1
8. CCc1cc(/C(Cc2csc(C)n2)=N/O)c(O)cc1O: 1
9. COc1ccc(N2C(=O)/C(=C/N(C)C)NC2=S)cc1: 1
10. CN(Cc1ccccc1)C(=O)C1CCCN(Cc2ccc(Cl)cc2)C1 (configuration not stated): -1
11. CN(C)c1ccc2cc(S(=O)(=O)O)cc(O)c2c1: 1
12. C#CCOCCOCCOCCNc1nc(N2CCN(C(=O)CCCCCCCCCCNC(=O)[C@@H](CCSC)n3cc(CCO)nn3)CC2)nc(N2CCN(C(=O)CCCCCCCCCCNC(=O)[C@H](CO)n3cc(CCCCCN)nn3)CC2)n1: -1
13. COc1cc(OC)c(OC)cc1CN1CCN(Cc2ccc(SC)cc2)CC1: -1
14. Nc1n[nH]c(N)c1N=Nc1ccc2c(c1)OCO2: 1
15. O=C(CSc1ccc2ccccc2c1)N1CCN(c2ccc(O)cc2)CC1: 1
16. O=S(=O)(c1ccc(Cl)c(NC(=S)N/N=C/c2ccc(O)cc2)c1)N1CCOCC1: 1
17. Cc1cccc(CN2CCN(Cc3ccco3)CC2)c1: -1
18. Cc1ccc(N2C(S)=C(C#N)C(=O)NC2c2ccco2)cc1 (configuration not stated): -1
19. CCc1cc(/C(Cc2ccccn2)=N\O)c(O)cc1O: 1
20. O=C1OCC/C1=C\c1ccc(O)cc1: 1
21. O=C1NC(=NCc2ccccc2)S/C1=C/c1ccc(O)cc1: 1
22. CCOC(=O)C1CCN(C2=NC(=O)/C(=C/c3ccc(O)cc3)S2)CC1: 1
23. COc1cc(NC(C)CCCNC(C)C)c2ncccc2c1OC (configuration not stated): -1
24. COc1cccc2c3cccc(OC)c3c3[nH]cnc3c12: -1
25. COc1ccc(-n2sc3ccccc3c2=O)cc1: -1
26. COc1ccc(-n2sc3ccc(F)cc3c2=O)cc1: -1
27. COc1cc(/C=N/NC(=O)CN(Cc2ccco2)S(=O)(=O)c2ccccc2)ccc1O: 1
28. COc1cc(CN(C)CCc2ccccn2)cc(OC)c1OC: -1
29. N=C1/C(=C\c2ccc(Br)o2)C(=O)N=C2SC(CC(=O)N3CCCCC3)=NN12: -1
30. O=S(=O)(O)c1cc(O)c2ccc(Nc3ccccc3)cc2c1: -1
31. O=[S@]1Oc2ccccc2-c2ccccc21: -1
32. Cc1cccc2sc(NNC(=O)c3cc(=O)c4ccccc4o3)nc12: 1
33. Oc1ccccc1C=NC1=NN(c2cccc(C(F)(F)F)c2)CC1: 1
34. CCN(CC)c1ccc(S(=O)(=O)N2CCOCC2)cc1NC(=O)CN1CCN(Cc2ccccc2)CC1: -1
35. CCOC(=O)CSC1=NC(=O)/C(=C\c2ccc(OC(C)=O)cc2)S1: -1
36. COc1ccc(OCCOCCN2CCN(C)CC2)cc1: -1
37. O=C1N/C(=C\c2ccc(O)cc2)C(O)=C1C=NCc1ccccc1: 1
38. Cc1cccc(-c2n[nH]c(=S)n2/N=C/c2ccco2)c1: 1
39. FC(F)(F)c1cccc(N2CCC(N=CN3CCCCCC3)=N2)c1: 1
40. Oc1ccc(/C=C/c2ccc3ccccc3n2)cc1: 1
41. Oc1ccc2ccccc2c1Br: 1
42. Cc1ccc(-c2csc3n[nH]c(=S)n23)cc1: 1
43. O=C(CN1CCc2ccccc2C1)Nc1ccccc1C(F)(F)F: -1
44. Cc1ccc(S(=O)(=O)N2CCOCC2)cc1NC(=O)CNCc1cccnc1: -1
45. CCOC(=O)N1CCC(N2CCN(S(=O)(=O)c3ccc4ccccc4c3)CC2)CC1: -1
46. COc1cc(N)c2ncccc2c1OC: 1
47. O=c1c(O)c(-c2ccc(O)c(O)c2)oc2cc(O)ccc12: 1

====

- assay_protocol: coupled detection enzyme interference, dose response, artefact control for MgcRacGAP inhibitor project, biochemical, coupled enzyme counter-screen (AID 624351);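 also: signal is the ADP detection kit reading of free GDP without any GAP enzyme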
- conditions: ADP Hunter coupled enzyme counter-screen, fluorescence, no MgcRacGAP; series mostly up to 80 µM
About 1,400 (58%) of roughly 2,400 compounds were called active.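 How the source made its calls: active means inhibition of 30% or more at any tested dose; inconclusive means primary hits over the limit that were never retested; inactive means the rest.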 The set was probably picked from earlier hits. The list shows a part of the results.
Classes used: active, inactive

1. COc1ccc(N2CCCC2)c(NC(=O)c2ccc([N+](=O)[O-])o2)c1: inactive
2. O=C(c1cccc(Cl)c1)N1CCN(Cc2ccncc2)CC1: inactive
3. CCC(=O)c1ccccc1OCCN1CCN(CC)CC1: inactive
4. CCN(c1ccccc1)S(=O)(=O)c1ccc(OC)c(NC(=O)CNCCc2ccccc2)c1: inactive
5. O=C1NN(c2ccc(Br)cc2)C(=O)/C1=C\c1ccc(O)cc1O: inactive
6. COc1ccc(CN2CCC(N(CCc3ccccc3)Cc3ccccc3)CC2)c(OC)c1: inactive
7. CN(c1ccccc1)S(=O)(=O)c1cccc(C(=O)NCCc2ccc(O)c(O)c2)c1: active
8. CCN1CCN(CCOc2ccccc2OCc2ccccc2)CC1: inactive
9. Cc1cc(=O)[nH]c(N/N=C/c2ccc(O)c(O)c2)n1: active
10. OC(CON=C1c2ccccc2-c2ccccc21)CN1CCNCC1 (centres undefined): inactive
11. C=CCN(CC=C)C(=O)C1CCN(Cc2ccc(OCc3ccccc3)cc2)CC1: inactive
12. O=C(CNCc1ccco1)Nc1ccc(N2CCCCCC2)cc1: inactive
13. COc1cc(/C=N/NC(=O)/C(=C/c2ccccc2)CCO)ccc1O: active
14. CCN1CCN(c2ccc(N=Cc3ccc(O)cc3O)cc2)CC1: active
15. COc1ccc(N2CCN(C(=O)c3ccc(Br)o3)CC2)cc1: inactive
16. Oc1ccc(/C=N\Nc2cc(N3CCOCC3)nc(N3CCOCC3)n2)c(O)c1: active
17. COc1ccc2c(-c3ccccc3)cc(N3CCOCC3)nc2c1: inactive
18. Oc1ccc(/C=N/Nc2cc(N3CCOCC3)nc(N3CCOCC3)n2)cc1: active
19. CC(=O)N1CCN(c2ccc(NCc3ccco3)cc2)CC1: active
20. OCCN1CCN(CC(O)COC(c2ccc(F)cc2)c2ccc(F)cc2)CC1 (centres undefined): inactive
21. Cc1nc2c(=O)[nH]c(=S)[nH]c2[nH]c1=O: inactive
22. Oc1cc(Br)ccc1C=Nc1ccc(N2CCCCC2)cc1: active
23. COc1cc(/C=N/Nc2nc(C)cc(=O)[nH]2)ccc1O: active
24. CCN1CCN(c2ccc(N=Cc3ccccc3O)cc2)CC1: active

====

- assay_protocol: coupled detection enzyme interference, dose response, artefact control for MgcRacGAP inhibitor project, biochemical, coupled enzyme counter-screen (AID 624351);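 also: signal is the ADP detection kit reading of free GDP without any GAP enzyme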
- conditions: ADP Hunter coupled enzyme counter-screen, fluorescence, no MgcRacGAP; series mostly up to 80 µM
In all, about 2,400 compounds went through this assay and about 1,400 (58%) were called active.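 How the source made its calls: active means inhibition of 30% or more at any tested dose; inconclusive means primary hits over the limit that were never retested; inactive means the rest.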 The set was probably picked from earlier hits. The list shows a part of the results.
Classes used: active, inactive

1) Cc1c(N=Nc2ccc(O)cc2)c(=O)n(-c2ccccc2)n1C: active
2) COc1ccc(C)cc1NC(=O)C(NCC(O)c1ccccc1)c1ccccc1 (stereo not drawn): inactive
3) CCOc1cc(/C=C(\C#N)c2[nH]nc(N)c2C#N)ccc1O: active
4) O=C(COc1ccccc1)NCC(=O)N/N=C/c1ccc(O)cc1O: active
5) C=CCOC(=O)c1cc(-c2ccc(/C=C3\C(=O)NC(=O)C(C#N)=C3C)o2)ccc1Cl: inactive
6) CC(=O)Nc1ccc2sn(-c3ccccc3)c(=O)c2c1: inactive
7) Cc1ccc(S(=O)(=O)N2CCCCC2)cc1NC(=O)CNCc1ccco1: inactive
8) CCN(CC)S(=O)(=O)c1ccc(C)c(NC(=O)CN2CCN(C)CC2)c1: inactive
9) Cc1ccc(/C=[N+](\[O-])c2ccc(N(C)C)cc2)c2nsnc12: active
10) Nc1ccc2nc(-c3ccc(Cl)cc3)[nH]c2c1: active
11) Cc1ccc(NC(=O)CNCCCN2CCOCC2)cc1S(=O)(=O)N1CCCCC1: inactive
12) O=C(O)c1ccc(COc2ccccc2C=C2C(=O)c3ccccc3C2=O)cc1: inactive
13) O=C(CNC(=O)c1cccs1)N/N=C/c1ccc(O)cc1O: active
14) Cc1ccn2c(=S)[nH]nc2c1: active
15) COC(=O)CC1SC(=O)NC1=Nc1ccc(O)cc1 (stereo not drawn): active
16) CC1=NOC(=O)/C1=C\c1ccc(-c2ccc(Cl)c(C(=O)O)c2)o1: inactive
17) Cc1nc2ccc(-c3nc4ccc(N)cc4[nH]3)cc2[nH]1: active
18) Cc1c(NC(=O)CNCc2ccc3c(c2)OCO3)c(=O)n(-c2ccccc2)n1C: inactive
19) COCCNCC(=O)Nc1ccc(C)c(S(=O)(=O)N2CCCCC2)c1: inactive
20) CC1=NN(c2ccc(C(=O)O)cc2)C(=O)/C1=C\c1ccc(OC(=O)c2cccs2)cc1: inactive
21) COCc1cc(S(=O)c2ccc(Cl)cc2)nc(C)n1 (stereo not drawn): inactive
22) CCOC(=O)c1[nH]c2ccccc2c1NC(=S)Nc1cc(C)ccc1C: active
23) CC1=NN(c2cccc(C(=O)O)c2)C(=O)/C1=C\C=C\c1ccco1: inactive
